B1: LINE1-mini (parent)
chain: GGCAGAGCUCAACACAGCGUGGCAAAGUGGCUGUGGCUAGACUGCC

Variants of: B1
Experiment: self-cleavage, relative activity (ratio to wild type); higher = more cleavage; in vitro, sequencing; the parent is a self-cleaving ribozyme
Cut-off 0.2 on self-cleavage, inclusive. At or above means Met; below means Not met.

Mutation string	Category label
A26C C31G	Not met
C10U G44U	Not met
A11C C18G	Not met
A4C G36A	Met
C18U C45U	Met

Form field: self-cleavage at least 0.2? Entry: G1A C10A Not met

Form field: self-cleavage at least 0.2? Entry: G35C G44U Not met

Form field: self-cleavage at least 0.2? Entry: U34A A39G Not met

Form field: self-cleavage at least 0.2? Entry: A6U G17U Met

Form field: self-cleavage at least 0.2? Entry: C37G C42U Not met
